// provenance: paper PMC8809517

- target: T1, GFP-9S library array, motif 4 ND N98C;D124C (synthetic construct, N98C;D124C)
- T1 chain: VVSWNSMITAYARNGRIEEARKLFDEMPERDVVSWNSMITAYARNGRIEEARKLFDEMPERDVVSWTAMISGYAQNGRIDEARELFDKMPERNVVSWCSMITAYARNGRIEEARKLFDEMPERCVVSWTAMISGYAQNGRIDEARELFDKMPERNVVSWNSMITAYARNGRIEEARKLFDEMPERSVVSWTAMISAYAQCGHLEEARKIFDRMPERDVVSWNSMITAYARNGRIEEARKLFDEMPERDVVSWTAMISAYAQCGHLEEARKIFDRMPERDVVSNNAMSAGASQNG
- protocolText: high-throughput RNA pulldown from lysate on Ni-NTA beads; HRP: 50 mM Tris pH 8, 150 mM NaCl, 1 mM beta-mercaptoethanol, 50 ug/ml BSA, 3 ug/ml yeast RNA, 0.5% heparin; ITC and FP: Tris pH 8, 200 mM KCl, 5% glycerol; MST: 50 mM Tris pH 8, 200 mM NaCl, 1 mM DTT, BSA, heparin, 0.05% Tween 20
- measurementContext: tags: N-terminal His-eGFP; label: 5' IRDye 800CW
assayEndpoint: pKd
Here pKd is given on a logarithmic scale as minus log10 of the concentration in mol/L.

{"binder": "AUUAUACGUGA (ssRNA) [IR-rpoA-U]", "assayEndpoint": "pKd", "measurement": 6.61}

Task: Given the binder AUUAAACGUGA (ssRNA) [IR-rpoA-A] , write its reported pKd.
Output: 7.36
